# assayed system: Hexose transporter 1 (Plasmodium falciparum)
# experiment notes: ST_JUDE_LEISH: Cytotoxicity at 2uM final concentration against transgenic Leishmania Mexicana promastigotes LmPfHT that are glucose transport deficient and complemented with the Plasmodium falciparum hexose transporter. Activity is measured by DNA content using SYBR green in vitro
# Format: functional
readout name: inhibition (%)
Give the value, in units of %, as a plain number.

Take a look at these entries with their results.
Ask: Item under review: CC(=NNC(=N)N)c1ccc2c(c1)Cc1ccccc1-2 . Reported inhibition?
Reply: 0.42

Ask: Follow-up entry: Cc1cc(N[C@@H](Cc2ccccc2)C(=O)Nc2ccccc2)nc(NCCc2cccnc2)n1
Reply: 11

Ask: Follow-up entry: COCCNCc1cccc(-c2ccc(CNC3CCN(Cc4ccccc4)CC3)cc2)c1
Reply: 3.3

Ask: Follow-up entry: Cc1cc(C)c(S(=O)(=O)N2CCCCC(c3cccc(C(F)(F)F)c3)=N2)c(C)c1
Reply: 1.41

Ask: Follow-up entry: COC(=O)c1ccc2c(c1)nc(Nc1cccc(F)c1)n2CC(O)c1ccccn1 (stereo unspecified)
Reply: 3.8

Ask: Follow-up entry: C=CCOC(=O)N1CCC(CNCc2cccc(-c3ccc(-c4nc5ccccc5[nH]4)s3)c2)C1 (stereo unspecified)
Reply: 1.79

Ask: Follow-up entry: O=C(NCC(c1ccc(C(F)(F)F)cc1)N1CCCC1)c1cc(-c2ccncc2)c(-c2cccc(O)c2)o1 (stereo unspecified)
Reply: -0.82

Ask: Follow-up entry: CCCN(CCC)CCCCC(C)Nc1c2ccc(Cl)cc2nc2ccc(OC)cc12 (stereo unspecified)
Reply: 8.65

***
Ask: Item under review: O=C1CCCN1CCCNCc1ccc(-c2ccc(-c3nc4cc(F)ccc4[nH]3)cc2)cc1 . Reported inhibition?
Reply: 13.3

Ask: Follow-up entry: O=C(NC1CCCCC1)N(Cc1ccc(-c2cccc(CNCc3ccc4c(c3)OCO4)c2)cc1)C1CCN(Cc2ccccc2)CC1
Reply: 1.74

Ask: Follow-up entry: COc1ccccc1CNc1nc(Nc2ccccc2C)nc2ccccc12
Reply: 54.5
